Tested on: Jurkat (T-Lymphoblastic Leukemia);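 also: after 72 h of two-drug dosing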
Assay: Bliss excess, mean over the matrix (fraction); higher = more synergy
endpoint-name: Bliss excess
Enter the number alone.

Query block: Can you share its Bliss excess? I mean this compound: Cc1cc2ncnn2cc1Nc1ncc2c(n1)n(C1CCOCC1)c(=O)n2C [AZD7648] + C[C@@H]1COCCN1C2=NC(=NC(=C2)C3(CC3)[S@](=N)(=O)C)C4=C5C=CNC5=NC=C4 [AZD6738] (first compound max 10 µM, 7x7, partner max 10 µM)
Result block: 0.011

Query block: Consider next the compound Cc1cc2ncnn2cc1Nc1ncc2c(n1)n(C1CCOCC1)c(=O)n2C [AZD7648] + O=C(c1cc(Cc2n[nH]c(=O)c3ccccc23)ccc1F)N1CCN(C(=O)C2CC2)CC1 [Olaparib] (first compound max 10 µM, 7x7, partner max 10 µM) in the same way.
Result block: 0.108

Query block: Consider next the compound Cn1cnc2c(F)c(Nc3ccc(Br)cc3Cl)c(C(=O)NOCCO)cc21 [Selumetinib] + C[C@@H]1COCCN1C2=NC(=NC(=C2)C3(CC3)[S@](=N)(=O)C)C4=C5C=CNC5=NC=C4 [AZD6738] (first compound max 10 µM, 7x7, partner max 10 µM) in the same way.
Result block: -0.0227

Query block: Consider next the compound COc1cccc(OCCCN)c1-c1cc(Nc2cnc(C#N)cn2)n[nH]1 [Prexasertib] + C[C@@H]1COCCN1C2=NC(=NC(=C2)C3(CC3)[S@](=N)(=O)C)C4=C5C=CNC5=NC=C4 [AZD6738] (first compound max 1 µM, 7x7, partner max 10 µM) in the same way.
Result block: -0.0076

----------
Test system: EW-7 (Ewing's Sarcoma)
Assay: combination Emax (second highest fraction inhibited in the dose matrix, 72 h); higher = more inhibition; extreme values may be limits of the assay
endpoint-name: combination Emax

Query block: Can you share its combination Emax? I mean this compound: NC1(C(=O)N[C@@H](CCO)c2ccc(Cl)cc2)CCN(c2ncnc3[nH]ccc23)CC1 [Capivasertib] + COc1nnc2ccc(N3CCC(c4ccc(OCCN5CCN(C)C(=O)[C@H]5C)cc4)CC3)nn12 [AZD5153] (first compound max 10 µM, 7x7, partner max 1 µM)
Result block: 0.828

Next:
Query block: Can you share its combination Emax? I mean this compound: Cc1c2c(nn1C)CSCc1cc(n(C)n1)CSc1cc(c3ccccc3c1)OCCCc1c(C(=O)O)n(C)c3c-2c(Cl)ccc13 [AZD5991] + Cn1cnc2c(F)c(Nc3ccc(Br)cc3Cl)c(C(=O)NOCCO)cc21 [Selumetinib] (first compound max 1 µM, 7x7, partner max 3 µM)
Result block: 0.271

----------
System: MKN1 (Gastric Carcinoma)
Test: combination Emax (second highest fraction inhibited in the dose matrix, 72 h); higher = more inhibition; extreme values may be limits of the assay
endpoint-name: combination Emax
Enter the number alone.

Query block: Can you share its combination Emax? I mean this compound: C[C@@H](c1ccc2nccn2c1)n1nnc2ncc(-c3cnn(C)c3)nc21 [Savolitinib] + Cc1c2c(nn1C)CSCc1cc(n(C)n1)CSc1cc(c3ccccc3c1)OCCCc1c(C(=O)O)n(C)c3c-2c(Cl)ccc13 [AZD5991] (first compound max 1 µM, 7x7, partner max 1 µM)
Result block: 0.111

----------
This listing pairs compounds with measured combination Emax.
System: 22RV1 (Prostate Carcinoma)
Test: combination Emax (second highest fraction inhibited in the dose matrix, 72 h); higher = more inhibition; extreme values may be limits of the assay

Query block: Can you share its combination Emax? I mean this compound: CS(=O)(=O)CCNCc1ccc(-c2ccc3ncnc(Nc4ccc(OCc5cccc(F)c5)c(Cl)c4)c3c2)o1 [Lapatinib] + Cn1cnc2c(F)c(Nc3ccc(Br)cc3Cl)c(C(=O)NOCCO)cc21 [Selumetinib] (first compound max 10 µM, 7x7, partner max 10 µM)
Result block: 0.464

Query block: Consider next the compound C[C@@H]1COCCN1c1cc(C2([S@](C)(=N)=O)CC2)nc(-c2ccnc3[nH]ccc23)n1 [AZD6738] + C1CC(C1)(C(=O)[O-])C(=O)[O-].N.N.[Pt+2] [Carboplatin] (first compound max 10 µM, 7x7, partner max 10 µM) in the same way.
Result block: 0.553

Query block: Consider next the compound N#Cc1cnc(Nc2cc(NC[C@H]3CNCCO3)c(C(F)(F)F)cn2)cn1 [SRA737] + Nc1ccn([C@@H]2O[C@H](CO)[C@@H](O)C2(F)F)c(=O)n1 [Gemcitabine] (first compound max 10 µM, 7x7, partner max 0.3 µM) in the same way.
Result block: 0.734

Attention now shifts to the item below.
Query block: Can you share its combination Emax? I mean this compound: Cc1cc2ncnn2cc1Nc1ncc2c(n1)n(C1CCOCC1)c(=O)n2C [AZD7648] + C[C@@H]1COCCN1C2=NC(=NC(=C2)C3(CC3)[S@](=N)(=O)C)C4=C5C=CNC5=NC=C4 [AZD6738] (first compound max 10 µM, 7x7, partner max 10 µM)
Result block: 0.518
